// provenance: PubChem BioAssay (NCI)

# Tested on: OVCAR-8 ovarian
# MEASUREMENT_PROTOCOL: NCI-60 one-dose screen, 48 h
# TEST_SETTINGS: 10 µM unless noted
About 83,000 compounds went through this panel and 20% of them were active in at least one assay; those are over-represented in the sample as a whole. Active and inactive are the calls of the source. Rule for the calls: active = growth percent below 10; inactive = the rest.
Possible outcomes: active, inactive

{"COMPOUND": "c1ccc(CNc2ncnc3ccc(-c4cnc5[nH]ncc5c4)cc23)cc1", "TARGET_OR_SYSTEM": "OVCAR-8 ovarian", "GROUP": "inactive"}
{"COMPOUND": "Clc1ccc2oc3c(NCCCn4ccnc4)c4ccccc4nc3c2c1", "TARGET_OR_SYSTEM": "OVCAR-8 ovarian", "GROUP": "inactive"}
{"COMPOUND": "Clc1ccc(-c2cn3cc(Cc4ccc(Cl)c(Cl)c4)sc3n2)cc1", "TARGET_OR_SYSTEM": "OVCAR-8 ovarian", "GROUP": "inactive"}
{"COMPOUND": "Fc1ccc(-c2cc3nc(C(Cl)Cl)nc(-c4ccccc4)n3n2)cc1", "TARGET_OR_SYSTEM": "OVCAR-8 ovarian", "GROUP": "active"}
{"COMPOUND": "CCCSc1nc(Nc2ccc(/C(C)=N\\NC(N)=S)cc2)c(C#N)c(-c2ccc(OC)cc2)n1", "TARGET_OR_SYSTEM": "OVCAR-8 ovarian", "GROUP": "inactive"}
{"COMPOUND": "COc1cc(OC)c(C2C(Cl)C(=O)N2Nc2ncnc3ccccc23)cc1OC (stereo not given)", "TARGET_OR_SYSTEM": "OVCAR-8 ovarian", "GROUP": "inactive"}
{"COMPOUND": "COc1cc(OC)c(S(=O)(=O)NNC(=O)c2ccncc2)cc1C(=O)/C=C/c1ccc(C)cc1", "TARGET_OR_SYSTEM": "OVCAR-8 ovarian", "GROUP": "inactive"}
{"COMPOUND": "O=C1C2=C(C(=O)c3c(O)cccc31)C(c1ccco1)c1sc(=O)[nH]c1S2 (stereo not given)", "TARGET_OR_SYSTEM": "OVCAR-8 ovarian", "GROUP": "active"}
{"COMPOUND": "CS(=O)(=O)c1ccc(-c2nc3ccccn3c2-c2nc3ccc([N+](=O)[O-])cc3[nH]2)cc1", "TARGET_OR_SYSTEM": "OVCAR-8 ovarian", "GROUP": "inactive"}
{"COMPOUND": "N#Cc1nc(-c2ccccc2)oc1S(=O)(=O)N1CCN(CCc2ccccn2)CC1", "TARGET_OR_SYSTEM": "OVCAR-8 ovarian", "GROUP": "inactive"}

---

# Tested on: SK-MEL-28 melanoma
# MEASUREMENT_PROTOCOL: NCI-60 one-dose screen, 48 h (100 = growth as untreated, 0 = no growth, -100 = all killed)
# TEST_SETTINGS: 10 µM unless noted
# Method: Growth inhibition of the SK-MEL-28 human tumor cell line is measured as a screen for anti-cancer activity. Cells are grown in 96 well plates and exposed to the test compound for 48 hours. Compounds are tested at a single concentration, which is 10^-5 M for most compounds. The reported endpoint is percent growth (GI% or GIPRCNT), where numbers from 0 - 100% represent growth inhibition, and numbers from -100% - 0 represent cell death. For example, a value of 40 represents 60% growth inhibition. […]
The panel holds about 83,000 compounds, 20% with a hit somewhere; the sample as a whole holds those more often.
Mark Criterion met for growth under 70%, Criterion not met if at or over.

{"COMPOUND": "CC(=O)Nc1cc(F)cc(-c2ccc3[nH]cc(-c4ccccc4)c3n2)c1", "GROUP": "Criterion met"}
{"COMPOUND": "Cn1cc(-c2cc(N)n3nc(-c4cn(C)c5ccc(Br)cc45)cc3n2)c2cc(Br)ccc21", "GROUP": "Criterion not met"}
{"COMPOUND": "CNC(=O)c1cc(-c2ccc(NC(=O)Nc3ccc(N4CCN(C)CC4)c(C(F)(F)F)c3)cc2)nc2cccnc12", "GROUP": "Criterion met"}
{"COMPOUND": "CS(=O)(=O)c1ccc(-c2nc3ccccn3c2-c2nc3ccc([N+](=O)[O-])cc3[nH]2)cc1", "GROUP": "Criterion not met"}
{"COMPOUND": "COc1cc(-c2nc3ccc(-c4nnc(SCC(=O)Nc5ccc(C(C)=O)cc5)o4)cc3[nH]2)cc(OC)c1OC", "GROUP": "Criterion not met"}
{"COMPOUND": "O=C(c1ccc(Cl)cc1)C1[C@H](c2ccc(Cl)cc2)[C@@H](c2ccccc2)NC12C(=O)Nc1ccc(Br)cc12 (some centres undefined)", "GROUP": "Criterion met"}
{"COMPOUND": "COc1ccc(/C=N/Nc2ccnc3cc(Cl)ccc23)cc1Cl", "GROUP": "Criterion met"}
{"COMPOUND": "COc1cc(OC)c(S(=O)(=O)NNC(=O)c2ccncc2)cc1C(=O)/C=C/c1ccc(C)cc1", "GROUP": "Criterion not met"}
